tested on: K. pneumoniae MP-546; test: Broth dilution MIC determination (CLSI), K. pneumoniae MP-546; type: cell-based; details: Klebsiella pneumoniae, MP546; strain MP-546, broth dilution

- Structure: "CO[C@]1(C)C[C@@H](C)CN(C)[C@@H]([C@H]2CCCN(C(C)C)C2)COC(=O)C(C)(C)C(=O)[C@H](C)[C@H]1O[C@@H]1O[C@H](C)C[C@H](N(C)C)[C@H]1O"
  MIC: "> 32 µg/mL"
- Structure: "CO[C@]1(C)C[C@@H](C)CN(C)[C@@H](C2CCN(C[C@H]3COC(C)(C)O3)CC2)COC(=O)C(C)(C)C(=O)[C@H](C)[C@H]1O[C@@H]1O[C@H](C)C[C@H](N(C)C)[C@H]1O"
  MIC: "< 4 µg/mL"
- Structure: "CO[C@]1(C)C[C@@H](C)CN(C)[C@@H](C2CCN(CC3CCC3)CC2)COC(=O)C(C)(C)C(=O)[C@H](C)[C@H]1O[C@@H]1O[C@H](C)C[C@H](N(C)C)[C@H]1O"
  MIC: "< 4 µg/mL"
- Structure: "CO[C@]1(C)C[C@@H](C)CN(C)[C@H](C2CN(C(=O)CN3CC(F)(F)C3)C2)COC(=O)C(C)(C)C(=O)[C@H](C)[C@H]1O[C@@H]1O[C@H](C)C[C@H](N(C)C)[C@H]1O"
  MIC: "4 to 32 µg/mL"
- Structure: "CO[C@]1(C)C[C@@H](C)CN(C)[C@H](C2CN(C(=O)CN3Cc4ccccc4C3)C2)COC(=O)C(C)(C)C(=O)[C@H](C)[C@H]1O[C@@H]1O[C@H](C)C[C@H](N(C)C)[C@H]1O"
  MIC: "4 to 32 µg/mL"

Cited source for all entries: patent US20220177508A1
